- assay-target: HLA-A*02:02
- protocol-details: IEDB peptide-MHC binding, purified MHC/competitive/radioactivity; filed as Kd, often an IC50 or EC50 that approximates it; bounds were set here for any values at or beyond the usual limits of such assays
- measurement-parameters: source organism: Mammarenavirus brazilense
parameter-measured: Kd
Report as: number unit

Report Kd for RSASGGVYL please.
278 nM

###

- assay-target: HLA-B*15:01
- protocol-details: IEDB peptide-MHC binding, purified MHC/direct/fluorescence; filed as Kd, often an IC50 or EC50 that approximates it; bounds were set here for any values at or beyond the usual limits of such assays
- measurement-parameters: source organism: Mammarenavirus lassaense
parameter-measured: pKd
Answers are plain numbers, as −log10 of the molar value.

Report pKd for IQNKLSSTF please.
7.62

###

- assay-target: HLA-A*30:02
- protocol-details: IEDB peptide-MHC binding, purified MHC/competitive/fluorescence; filed as Kd, often an IC50 or EC50 that approximates it; bounds were set here for any values at or beyond the usual limits of such assays
- measurement-parameters: source organism: Vibrio cholerae
pKd: −log10 of the molar value.
parameter-measured: pKd

Report pKd for TRAPAPFPL please.
≤ 5.30

###

- assay-target: HLA-B*57:01
- protocol-details: IEDB peptide-MHC binding, purified MHC/competitive/radioactivity; filed as Kd, often an IC50 or EC50 that approximates it; bounds were set here for any values at or beyond the usual limits of such assays
- measurement-parameters: source organism: Dengue virus 4 Philippines/H241/1956
parameter-measured: Kd (nM)
Answers are plain numbers, in nM.

Report Kd for TTMFGGVSW please.
1.7

###

- assay-target: HLA-B*18:01
- protocol-details: IEDB peptide-MHC binding, purified MHC/direct/fluorescence; filed as Kd, often an IC50 or EC50 that approximates it; bounds were set here for any values at or beyond the usual limits of such assays
- measurement-parameters: source organism: Influenza A virus (A/Turkey/MO/24093/99(H1N2))
parameter-measured: pKd
One number for each entry, as −log10 of the molar value.

Look up pKd with HLA-B*18:01 for this sequence: MQIRGFVYF
6.92

###

- assay-target: HLA-A*02:19
- protocol-details: IEDB peptide-MHC binding, purified MHC/competitive/fluorescence; filed as Kd, often an IC50 or EC50 that approximates it; bounds were set here for any values at or beyond the usual limits of such assays
- measurement-parameters: source organism: Human immunodeficiency virus type 1 BH10
parameter-measured: Kd

Report Kd for LLQLTVWGI please.
≤ 0.1 nM

###

- assay-target: HLA-B*27:05
- protocol-details: IEDB peptide-MHC binding, purified MHC/direct/fluorescence; filed as Kd, often an IC50 or EC50 that approximates it; bounds were set here for any values at or beyond the usual limits of such assays
- measurement-parameters: source organism: Influenza A virus (A/swine/Korea/S190/2004(H9N2))
parameter-measured: Kd

Look up Kd with HLA-B*27:05 for this sequence: ATTHSWIPK
≥ 20 µM

###

- assay-target: HLA-A*01:01
- protocol-details: IEDB peptide-MHC binding, purified MHC/direct/fluorescence; filed as Kd, often an IC50 or EC50 that approximates it; bounds were set here for any values at or beyond the usual limits of such assays
- measurement-parameters: source organism: Alkhumra hemorrhagic fever virus
parameter-measured: Kd

Report Kd for WPWNAREDV please.
≥ 20 µM

###

- assay-target: HLA-A*69:01
- protocol-details: IEDB peptide-MHC binding, purified MHC/competitive/fluorescence; filed as Kd, often an IC50 or EC50 that approximates it; bounds were set here for any values at or beyond the usual limits of such assays
- measurement-parameters: source organism: Vibrio vulnificus YJ016
parameter-measured: Kd (nM)
One number for each entry, in nM.

Report Kd for IVAQGIAAL please.
7.7

###

- assay-target: HLA-B*18:01
- protocol-details: IEDB peptide-MHC binding, purified MHC/competitive/fluorescence; filed as Kd, often an IC50 or EC50 that approximates it; bounds were set here for any values at or beyond the usual limits of such assays
- measurement-parameters: source organism: Vibrio cholerae
pKd: −log10 of the molar value.
parameter-measured: pKd

Report pKd for TRAPAPFPL please.
≤ 4.70

###

- assay-target: HLA-B*18:01
- protocol-details: IEDB peptide-MHC binding, purified MHC/competitive/fluorescence; filed as Kd, often an IC50 or EC50 that approximates it; bounds were set here for any values at or beyond the usual limits of such assays
- measurement-parameters: source organism: Fowlpox virus
parameter-measured: Kd

Report Kd for VIMWYNYLF please.
≥ 20 µM

###

- assay-target: HLA-A*01:01
- protocol-details: IEDB peptide-MHC binding, purified MHC/direct/fluorescence; filed as Kd, often an IC50 or EC50 that approximates it; bounds were set here for any values at or beyond the usual limits of such assays
- measurement-parameters: source organism: Pseudomonas savastanoi
parameter-measured: Kd

Report Kd for TYYPQVVLG please.
≥ 20 µM

###

- assay-target: HLA-B*57:01
- protocol-details: IEDB peptide-MHC binding, purified MHC/competitive/fluorescence; filed as Kd, often an IC50 or EC50 that approximates it; bounds were set here for any values at or beyond the usual limits of such assays
- measurement-parameters: source organism: Orthohantavirus puumalaense
parameter-measured: Kd

Report Kd for IILKALYML please.
≥ 20 µM

###

- assay-target: HLA-A*02:01
- protocol-details: IEDB peptide-MHC binding, purified MHC/direct/fluorescence; filed as Kd, often an IC50 or EC50 that approximates it; bounds were set here for any values at or beyond the usual limits of such assays
- measurement-parameters: source organism: Influenza A virus (A/chicken/Vietnam/5/2003(H5N1))
parameter-measured: Kd

Report Kd for RVDKLTQGR please.
≥ 20 µM

###

- assay-target: HLA-B*53:01
- protocol-details: IEDB peptide-MHC binding, purified MHC/competitive/radioactivity; filed as Kd, often an IC50 or EC50 that approximates it; bounds were set here for any values at or beyond the usual limits of such assays
- measurement-parameters: source organism: Dengue virus 4 Philippines/H241/1956
Could you please report measured pKd for the items listed next?
Answers are plain numbers, as −log10 of the molar value.

sequence_data=PVNDLKYSW parameter_measured=pKd measured_result=6.11

Report pKd for EPSKGWKNW please.
6.22

###

- assay-target: HLA-A*02:01
- protocol-details: IEDB peptide-MHC binding, purified MHC/direct/fluorescence; filed as Kd, often an IC50 or EC50 that approximates it; bounds were set here for any values at or beyond the usual limits of such assays
- measurement-parameters: source organism: Shigella boydii
parameter-measured: pKd
One number for each entry, as −log10 of the molar value.

Report pKd for KLPRWIFFA please.
8.82

###

- assay-target: HLA-B*51:01
- protocol-details: IEDB peptide-MHC binding, purified MHC/direct/fluorescence; filed as Kd, often an IC50 or EC50 that approximates it; bounds were set here for any values at or beyond the usual limits of such assays
- measurement-parameters: source organism: Mammarenavirus lassaense
pKd: −log10 of the molar value.
parameter-measured: pKd

Report pKd for AVKAGACML please.
≤ 4.70

###

- assay-target: HLA-A*02:01
- protocol-details: IEDB peptide-MHC binding, purified MHC/competitive/fluorescence; bounds were set here for any values at or beyond the usual limits of such assays
- measurement-parameters: source organism: Human alphaherpesvirus 1 strain 17
parameter-measured: pIC50
Answers are plain numbers, as −log10 of the molar value.

Report pIC50 for FIPENQRTV please.
5.37

###

- assay-target: HLA-C*03:03
- protocol-details: IEDB peptide-MHC binding, purified MHC/direct/fluorescence; filed as Kd, often an IC50 or EC50 that approximates it; bounds were set here for any values at or beyond the usual limits of such assays
- measurement-parameters: source organism: Canarypox virus
parameter-measured: Kd (nM)
Give bare numbers, in nM.

Report Kd for YIIPCILIL please.
229

###

- assay-target: HLA-B*46:01
- protocol-details: IEDB peptide-MHC binding, purified MHC/competitive/fluorescence; filed as Kd, often an IC50 or EC50 that approximates it; bounds were set here for any values at or beyond the usual limits of such assays
- measurement-parameters: source organism: Influenza A virus (A/81/HO)
parameter-measured: Kd

Report Kd for WMACNSAAF please.
0.109 µM

###

- assay-target: HLA-B*18:01
- protocol-details: IEDB peptide-MHC binding, purified MHC/direct/fluorescence; filed as Kd, often an IC50 or EC50 that approximates it; bounds were set here for any values at or beyond the usual limits of such assays
- measurement-parameters: source organism: Influenza A virus (A/swine/Korea/S190/2004(H9N2))
pKd: −log10 of the molar value.
parameter-measured: pKd

Report pKd for ATTHSWIPK please.
≤ 4.70

###

- assay-target: HLA-B*40:01
- protocol-details: IEDB peptide-MHC binding, purified MHC/direct/fluorescence; filed as Kd, often an IC50 or EC50 that approximates it; bounds were set here for any values at or beyond the usual limits of such assays
- measurement-parameters: source organism: Burkholderia mallei
parameter-measured: Kd

Report Kd for ISDSAQNMM please.
≥ 20 µM
